Target: Human Cot (Homo sapiens (Human), UniProt P41279)
Sequence (P41279 30-397): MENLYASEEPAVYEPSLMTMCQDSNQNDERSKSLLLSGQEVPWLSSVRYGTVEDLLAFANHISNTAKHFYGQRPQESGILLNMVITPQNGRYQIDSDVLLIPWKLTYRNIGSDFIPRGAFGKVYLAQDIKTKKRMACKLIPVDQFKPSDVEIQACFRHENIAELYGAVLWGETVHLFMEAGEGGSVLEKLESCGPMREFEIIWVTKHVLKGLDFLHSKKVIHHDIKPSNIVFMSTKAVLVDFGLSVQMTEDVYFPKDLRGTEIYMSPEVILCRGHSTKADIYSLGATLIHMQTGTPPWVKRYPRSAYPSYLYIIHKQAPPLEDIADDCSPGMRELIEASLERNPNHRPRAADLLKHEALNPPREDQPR
Experiment: High Throughput Cot Biochemical Assay
Settings: IC50 HTRF, Cot HTRF (TR-FRET) biochemical assay
Measured endpoint: IC50 (nM)
Could you give me the number in nM? Just the number is fine.

A selection of reference data follows.
Compound: N#Cc1cnc2c(Cl)cc(N[C@@H](c3cccnc3)c3cn(C4COC4)nn3)cc2c1Nc1cnc(F)c(F)c1 [Example 199]
Value measured: 9

Compound: N#Cc1cnc2c(Cl)cc(N[C@@H](c3ccc(F)nc3)c3c[nH]nn3)cc2c1Nc1cnc(F)c(F)c1 [Example 166]
Value measured: 6

Compound: Cn1cc2cccc([C@H](Nc3cc(Cl)c4ncc(C#N)c(NCC(C)(C)C)c4c3)c3cn(C4(C(F)(F)F)CC4)nn3)c2n1 [Example 570]
Value measured: 184

Compound: CC(C)(C)CNc1c(C#N)cnc2c(Cl)cc(N[C@H](c3cn(C4CC4)nn3)c3csc4c3CCN(C3COC3)C4)cc12 [Example 80]
Value measured: 1

Compound: CC(C)(C)CNc1c(C#N)cnc2c(Cl)cc(N[C@H](c3cn(C4(C(F)(F)F)CC4)nn3)c3csc4cnccc34)cc12 [Example 741]
Value measured: 6

Param readout = IC50; param system = Human Cot (Homo sapiens (Human), UniProt P41279); param query = CCc1nc(F)ccc1[C@H](Nc1cc(C#N)c2ncc(C#N)c(NCC(C)(C)C)c2c1)c1cn(C2(C(F)(F)F)CC2)nn1 [Example 598] ; response: value
5

Param readout = IC50; param system = Human Cot (Homo sapiens (Human), UniProt P41279); param query = CC(C)(CNc1c(C#N)cnc2c(Cl)cc(N[C@H](c3cn(C45CC(C4)C5)nn3)c3cccc4ncccc34)cc12)C(F)(F)F [Example 799] ; response: value
4

----------
Biological target: UniProt:P41279
Experiment: High Throughput Cot Biochemical Assay
Conditions: IC50 HTRF, Cot HTRF (TR-FRET) biochemical assay
pIC50 listing for selected molecules.
// pIC50 is dimensionless: -log10 of concentration (M)

Molecule: Cn1ccc2c([C@H](Nc3cc(C#N)c4ncc(C#N)c(NCC(C)(C)C)c4c3)c3cn(C4(C(F)(F)F)CC4)nn3)cccc2c1=O
Target or test system: UniProt:P41279
pIC50: 8.70
--
Molecule: Cc1nc(F)ccc1[C@H](Nc1cc(C#N)c2ncc(C#N)c(NCC(C)(C)c3ccccc3)c2c1)c1cn(C2(C(F)(F)F)CC2)nn1
Target or test system: UniProt:P41279
pIC50: 8.05
--
Molecule: Cc1nc(F)ccc1[C@H](Nc1cc(C#N)c2ncc(C#N)c(NCC(C)(C)C)c2c1)c1cn(C(F)(F)CO)nn1
Target or test system: UniProt:P41279
pIC50: 8.70
--
Molecule: [2H]C(Nc1cc(Cl)c2ncc(C#N)c(N[C@H](CCC#N)c3ccccc3)c2c1)(c1cn(C2(C(F)(F)F)CC2)nn1)c1ccc(F)nc1C (stereo partly drawn)
Target or test system: UniProt:P41279
pIC50: 8.40

Query molecule follows.
// query pIC50 value for entry Cc1nc(F)ccc1[C@H](Nc1cc(Cl)c2ncc(C#N)c(NCC(C)(C)C#N)c2c1)c1cn(C2(C(F)(F)F)CC2)nn1
7.55

All figures here come from patent US11066414B2.
